target: UniProt:Q86W56; test: Biochemical assay (PARG, TFMU-ADPr substrate); conditions: 4 nM PARG, 66.2 uM TFMU-ADPr, 3 min at room temperature
Sequence (Q86W56 whole entry): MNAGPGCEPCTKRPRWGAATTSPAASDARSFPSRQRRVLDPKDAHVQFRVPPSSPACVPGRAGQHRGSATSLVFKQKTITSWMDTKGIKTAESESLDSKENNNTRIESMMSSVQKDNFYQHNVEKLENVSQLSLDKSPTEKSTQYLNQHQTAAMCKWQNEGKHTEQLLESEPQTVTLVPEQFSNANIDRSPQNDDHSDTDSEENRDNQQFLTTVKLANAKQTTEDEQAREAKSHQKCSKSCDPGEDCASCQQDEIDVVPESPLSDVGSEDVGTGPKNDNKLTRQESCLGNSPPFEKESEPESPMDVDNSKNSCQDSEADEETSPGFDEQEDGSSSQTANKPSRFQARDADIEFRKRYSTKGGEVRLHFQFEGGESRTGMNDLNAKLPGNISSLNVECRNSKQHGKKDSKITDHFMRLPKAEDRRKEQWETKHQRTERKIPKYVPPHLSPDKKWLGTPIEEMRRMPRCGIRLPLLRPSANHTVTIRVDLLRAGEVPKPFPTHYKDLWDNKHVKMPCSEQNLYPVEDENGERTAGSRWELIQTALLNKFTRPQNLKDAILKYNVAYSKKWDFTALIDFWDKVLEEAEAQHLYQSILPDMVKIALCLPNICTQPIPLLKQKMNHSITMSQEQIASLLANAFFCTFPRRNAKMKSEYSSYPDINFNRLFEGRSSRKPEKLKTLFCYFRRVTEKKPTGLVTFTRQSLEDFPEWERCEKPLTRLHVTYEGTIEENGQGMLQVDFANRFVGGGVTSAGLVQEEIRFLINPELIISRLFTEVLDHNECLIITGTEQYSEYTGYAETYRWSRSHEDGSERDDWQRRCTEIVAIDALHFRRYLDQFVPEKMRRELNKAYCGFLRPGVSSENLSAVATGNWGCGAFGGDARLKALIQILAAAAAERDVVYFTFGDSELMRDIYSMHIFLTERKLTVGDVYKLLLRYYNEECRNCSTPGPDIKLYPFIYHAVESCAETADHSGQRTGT
value-kind: IC50

[
  {
    "compound": "[2H]C([2H])([2H])C1(NS(=O)(=O)c2cc(N3CCN(C(=O)C(C)C)CC3)c3cnc(-c4nnc(C(F)F)s4)n3c2)CC1",
    "value-kind": "IC50",
    "reported-measurement": "< 100 nM"
  },
  {
    "compound": "CC(C)C(=O)N1CCN(c2cc(S(=O)(=O)NC3(C)CC3)cn3c(-c4nnc(C(F)F)s4)nnc23)CC1",
    "value-kind": "IC50",
    "reported-measurement": "< 100 nM"
  },
  {
    "compound": "CC(C)C(=O)N1CCN(c2cc(S(=O)(=O)NC3(C#N)CC3)cn3c(-c4cc5n(n4)CC(F)C5)cnc23)CC1 (centres unmarked)",
    "value-kind": "IC50",
    "reported-measurement": "500 to 1000 nM"
  },
  {
    "compound": "[2H]c1nc(-c2nnc(C(F)F)s2)n2cc(S(=O)(=O)NC3(C#N)CC3)cc(N3CCN(C(=O)C4(C)CC4)[C@H](C)C3)c12",
    "value-kind": "IC50",
    "reported-measurement": "< 100 nM"
  },
  {
    "compound": "N#CC1(NS(=O)(=O)c2cc(NC3CCC(OC(F)(F)F)C3)c3cnc(-c4nnc(C(F)F)s4)n3c2)CC1 (centres unmarked)",
    "value-kind": "IC50",
    "reported-measurement": "100 to 500 nM"
  },
  {
    "compound": "CC1(O)CCN(c2cc(S(=O)(=O)NC3(CF)CC3)cn3c(-c4nnc(C(F)F)s4)nnc23)CC1",
    "value-kind": "IC50",
    "reported-measurement": "< 100 nM"
  }
]

For the record CC1(NS(=O)(=O)c2cc(N3CCC(CO)CC3)c3nnc(-c4nnc(C(F)F)s4)n3c2)CC1 , what value of IC50 is listed for UniProt:Q86W56?
< 100 nM

Tell me reported IC50 for CC(C)C(=O)N1CCN(c2cc(S(=O)(=O)NC3(C)CCOC3)cn3c(-c4nnc(C(F)F)s4)ncc23)CC1 (centres unmarked) , tested with UniProt:Q86W56.
< 100 nM

Identify the measured IC50 of Cn1nccc1C1C=C(c2cc(S(=O)(=O)NC3(C#N)CC3)cn3c(-c4nnc(C(F)F)s4)nnc23)CC1 (centres unmarked) for UniProt:Q86W56.
< 100 nM

Give the reported IC50 for CC(C)C(=O)N1CCN(c2cc(S(=O)(=O)NC3(C#N)CC3)cn3c(-c4nnc(CO)s4)ncc23)CC1 (system: UniProt:Q86W56).
< 100 nM

So what IC50 did CN1CCN(c2cc(S(=O)(=O)NC3(C#N)CC3)cn3c(-c4nnc(C(F)F)s4)ncc23)CC1=O get with UniProt:Q86W56?
< 100 nM

Query for UniProt:Q86W56: what IC50 does the record show for C[C@@H]1CN(c2cc(S(=O)(=O)NC3(C#N)CC3)cn3c(-c4nnc(C(F)F)s4)ncc23)CCN1C(=O)C1CC1 ?
< 100 nM

Query IC50 on UniProt:Q86W56 for CC(C)(O)C1CCN(c2cc(S(=O)(=O)NC3(CF)CC3)cn3c(-c4nnc(C(F)F)s4)nnc23)CC1
< 100 nM

// map C[C@@H]1CN(c2cc(S(=O)(=O)NC3(C#N)CC3)cn3c(-c4nnc(C(F)F)s4)ncc23)C[C@H](C)N1C(=O)C1CC1 to recorded IC50 (system: UniProt:Q86W56)
< 100 nM
